Data origin: paper PMC5761851

- SYSTEM UNDER TEST: JNK3 (Homo sapiens)
- Construct: purchased Eurofins Pharma Discovery Services (KinaseProfiler; Cerep BioPrint panel)
- Sequence (P53779 whole entry): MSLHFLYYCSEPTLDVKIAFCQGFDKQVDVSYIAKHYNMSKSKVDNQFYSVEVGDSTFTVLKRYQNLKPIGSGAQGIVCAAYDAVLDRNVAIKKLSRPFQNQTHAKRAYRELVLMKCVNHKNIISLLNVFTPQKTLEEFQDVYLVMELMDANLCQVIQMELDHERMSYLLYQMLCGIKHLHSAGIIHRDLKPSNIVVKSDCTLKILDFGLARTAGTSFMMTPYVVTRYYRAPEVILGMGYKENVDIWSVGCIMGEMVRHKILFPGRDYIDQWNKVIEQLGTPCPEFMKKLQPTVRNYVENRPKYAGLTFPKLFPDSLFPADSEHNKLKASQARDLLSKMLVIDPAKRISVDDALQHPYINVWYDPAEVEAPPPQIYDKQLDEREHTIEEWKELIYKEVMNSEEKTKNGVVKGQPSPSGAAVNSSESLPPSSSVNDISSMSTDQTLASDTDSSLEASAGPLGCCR
- EXPERIMENTAL DETAILS: kinase selectivity panel
- Type: biochemical
- MEASUREMENT PARAMETERS: read-out: percentage of control activity (POC), JNK3

>  <MOLECULE>
CS(=O)(=O)N1CCN(c2ccc(Nc3ncc(C(N)=O)c(NC4CC4)n3)cc2)CC1

>  <remaining activity at 10 µM / %>
-4

$$$$
>  <MOLECULE>
CC(C)(C)N1CCC(c2cc(-c3ccc(F)cc3Cl)c3cc[n+]([O-])c(-c4c(Cl)cccc4Cl)c3n2)CC1

>  <remaining activity at 10 µM / %>
97

$$$$
>  <MOLECULE>
COc1c(NC(=O)c2ccc(C)c(-c3nnc4c(NCC(C)(C)C)nccn34)c2)cc(C(C)(C)C)cc1NS(C)(=O)=O [compound 7, reference compound]

>  <remaining activity at 10 µM / %>
75

$$$$
>  <MOLECULE>
Cc1ccc(C(=O)NCC2CC2)cc1-c1ccc2c(c1)NC(=O)C21CCCC1

>  <remaining activity at 10 µM / %>
65

$$$$
>  <MOLECULE>
Cn1cc(-c2cccc(-c3nc(C(=O)NC4C5CC6CC4CC(O)(C6)C5)c(N)nc3N)c2)cn1 (centres unmarked)

>  <remaining activity at 10 µM / %>
72

$$$$

###

- SYSTEM UNDER TEST: DRAK1 (Homo sapiens)
- Construct: purchased Eurofins Pharma Discovery Services (KinaseProfiler; Cerep BioPrint panel)
- Sequence (Q9UEE5 whole entry): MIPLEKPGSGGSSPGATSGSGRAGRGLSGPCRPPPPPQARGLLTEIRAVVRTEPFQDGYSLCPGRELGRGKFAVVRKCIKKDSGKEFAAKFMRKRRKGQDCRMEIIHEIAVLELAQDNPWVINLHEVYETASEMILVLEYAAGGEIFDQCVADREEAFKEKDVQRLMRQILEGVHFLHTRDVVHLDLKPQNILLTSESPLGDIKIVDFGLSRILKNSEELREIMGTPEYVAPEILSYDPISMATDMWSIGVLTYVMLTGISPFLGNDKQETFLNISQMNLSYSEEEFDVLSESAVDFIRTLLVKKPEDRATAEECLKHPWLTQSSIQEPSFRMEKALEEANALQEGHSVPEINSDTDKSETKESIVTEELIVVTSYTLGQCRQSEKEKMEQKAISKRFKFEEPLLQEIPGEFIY
- EXPERIMENTAL DETAILS: kinase selectivity panel
- Assay type: biochemical
- MEASUREMENT PARAMETERS: read-out: percentage of control activity (POC), DRAK1
Recorded measurements of remaining activity at 10 µM, one per entry

>  <COMPOUND>
COc1c(NC(=O)c2ccc(C)c(-c3nnc4c(NCC(C)(C)C)nccn34)c2)cc(C(C)(C)C)cc1NS(C)(=O)=O [compound 7, reference compound]

>  <SYSTEM UNDER TEST>
DRAK1 (Homo sapiens)

>  <remaining activity at 10 µM>
144%

$$$$
>  <COMPOUND>
CS(=O)(=O)N1CCN(c2ccc(Nc3ncc(C(N)=O)c(NC4CC4)n3)cc2)CC1 [compound 5]

>  <SYSTEM UNDER TEST>
DRAK1 (Homo sapiens)

>  <remaining activity at 10 µM>
1%

$$$$
>  <COMPOUND>
CC(C)(C)N1CCC(c2cc(-c3ccc(F)cc3Cl)c3cc[n+]([O-])c(-c4c(Cl)cccc4Cl)c3n2)CC1 [compound 2]

>  <SYSTEM UNDER TEST>
DRAK1 (Homo sapiens)

>  <remaining activity at 10 µM>
99%

$$$$
>  <COMPOUND>
Cc1ccc(C(=O)NCC2CC2)cc1-c1ccc2c(c1)NC(=O)C21CCCC1 [compound 3]

>  <SYSTEM UNDER TEST>
DRAK1 (Homo sapiens)

>  <remaining activity at 10 µM>
98%

$$$$
>  <COMPOUND>
Cn1cc(-c2cccc(-c3nc(C(=O)NC4C5CC6CC4CC(O)(C6)C5)c(N)nc3N)c2)cn1 (centres unmarked) [compound 4]

>  <SYSTEM UNDER TEST>
DRAK1 (Homo sapiens)

>  <remaining activity at 10 µM>
89%

$$$$

###

- Tested on: Production of TNFα in THP-1 cells
- EXPERIMENTAL DETAILS: p38-dependent TNF production in THP-1 cells
- Assay type: cell-based
- MEASUREMENT PARAMETERS: individual values; read-out: Cellular activity (IC50, mM) TNFa production in THP-1

>  <SUBSTANCE SMILES>
Cc1ccc(C(=O)NCC2CC2)cc1-c1ccc2c(c1)NC(=O)C21CCCC1

>  <IC50, nM>
1.32

$$$$

###

- SYSTEM UNDER TEST: AMPKα1 (Homo sapiens, UniProt Q13131)
- Construct: purchased Eurofins Pharma Discovery Services (KinaseProfiler; Cerep BioPrint panel)
- Sequence (Q13131 whole entry): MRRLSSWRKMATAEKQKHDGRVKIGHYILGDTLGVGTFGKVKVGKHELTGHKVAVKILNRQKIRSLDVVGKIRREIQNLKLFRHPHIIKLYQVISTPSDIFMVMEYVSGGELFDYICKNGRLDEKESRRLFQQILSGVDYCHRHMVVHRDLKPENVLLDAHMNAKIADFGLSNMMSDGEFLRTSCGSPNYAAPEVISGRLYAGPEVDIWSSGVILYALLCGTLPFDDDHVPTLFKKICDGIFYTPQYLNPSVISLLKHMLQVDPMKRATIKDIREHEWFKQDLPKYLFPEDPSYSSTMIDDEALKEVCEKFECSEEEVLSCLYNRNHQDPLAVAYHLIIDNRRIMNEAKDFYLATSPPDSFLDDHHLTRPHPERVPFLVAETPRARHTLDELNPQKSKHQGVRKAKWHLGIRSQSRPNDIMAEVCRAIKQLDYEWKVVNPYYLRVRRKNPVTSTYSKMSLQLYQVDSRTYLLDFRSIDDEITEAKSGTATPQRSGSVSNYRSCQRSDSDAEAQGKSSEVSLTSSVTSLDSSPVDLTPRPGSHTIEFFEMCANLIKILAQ
- Sequence (Q9Y478 whole entry partner): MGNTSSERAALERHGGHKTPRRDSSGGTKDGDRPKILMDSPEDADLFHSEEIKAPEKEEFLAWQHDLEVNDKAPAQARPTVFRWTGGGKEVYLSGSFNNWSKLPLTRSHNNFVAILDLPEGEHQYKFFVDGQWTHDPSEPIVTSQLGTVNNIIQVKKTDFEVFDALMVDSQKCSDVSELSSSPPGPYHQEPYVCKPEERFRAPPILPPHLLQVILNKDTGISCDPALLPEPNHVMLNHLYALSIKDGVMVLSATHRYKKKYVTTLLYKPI
- Sequence (P54619 whole entry partner): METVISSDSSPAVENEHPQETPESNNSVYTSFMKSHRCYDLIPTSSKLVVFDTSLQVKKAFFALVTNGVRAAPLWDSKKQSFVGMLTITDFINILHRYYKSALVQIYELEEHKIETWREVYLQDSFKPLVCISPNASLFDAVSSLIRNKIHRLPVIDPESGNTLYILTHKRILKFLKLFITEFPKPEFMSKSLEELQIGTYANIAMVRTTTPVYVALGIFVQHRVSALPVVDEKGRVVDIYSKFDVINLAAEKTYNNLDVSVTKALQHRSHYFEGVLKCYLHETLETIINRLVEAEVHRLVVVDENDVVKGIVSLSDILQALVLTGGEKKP
- EXPERIMENTAL DETAILS: kinase selectivity panel
- Type: biochemical
- MEASUREMENT PARAMETERS: read-out: percentage of control activity (POC), AMPKα1
Listed compounds paired with reported remaining activity at 10 µM
MEASURE: remaining activity at 10 µM (%)

>  <COMPOUND>
COc1c(NC(=O)c2ccc(C)c(-c3nnc4c(NCC(C)(C)C)nccn34)c2)cc(C(C)(C)C)cc1NS(C)(=O)=O [compound 7, reference compound]

>  <SYSTEM UNDER TEST>
AMPKα1 (Homo sapiens, UniProt Q13131)

>  <MEASURE>
remaining activity at 10 µM

>  <NUMERIC VALUE>
114

$$$$
>  <COMPOUND>
CC(C)(C)N1CCC(c2cc(-c3ccc(F)cc3Cl)c3cc[n+]([O-])c(-c4c(Cl)cccc4Cl)c3n2)CC1

>  <SYSTEM UNDER TEST>
AMPKα1 (Homo sapiens, UniProt Q13131)

>  <MEASURE>
remaining activity at 10 µM

>  <NUMERIC VALUE>
105

$$$$
>  <COMPOUND>
CS(=O)(=O)N1CCN(c2ccc(Nc3ncc(C(N)=O)c(NC4CC4)n3)cc2)CC1

>  <SYSTEM UNDER TEST>
AMPKα1 (Homo sapiens, UniProt Q13131)

>  <MEASURE>
remaining activity at 10 µM

>  <NUMERIC VALUE>
-1

$$$$
>  <COMPOUND>
Cc1ccc(C(=O)NCC2CC2)cc1-c1ccc2c(c1)NC(=O)C21CCCC1

>  <SYSTEM UNDER TEST>
AMPKα1 (Homo sapiens, UniProt Q13131)

>  <MEASURE>
remaining activity at 10 µM

>  <NUMERIC VALUE>
98

$$$$
>  <COMPOUND>
Cn1cc(-c2cccc(-c3nc(C(=O)NC4C5CC6CC4CC(O)(C6)C5)c(N)nc3N)c2)cn1 (centres unmarked)

>  <SYSTEM UNDER TEST>
AMPKα1 (Homo sapiens, UniProt Q13131)

>  <MEASURE>
remaining activity at 10 µM

>  <NUMERIC VALUE>
85

$$$$

###

- SYSTEM UNDER TEST: MAPKAP-K2 (Homo sapiens)
- Construct: purchased Eurofins Pharma Discovery Services (KinaseProfiler; Cerep BioPrint panel)
- Sequence (P49137 whole entry): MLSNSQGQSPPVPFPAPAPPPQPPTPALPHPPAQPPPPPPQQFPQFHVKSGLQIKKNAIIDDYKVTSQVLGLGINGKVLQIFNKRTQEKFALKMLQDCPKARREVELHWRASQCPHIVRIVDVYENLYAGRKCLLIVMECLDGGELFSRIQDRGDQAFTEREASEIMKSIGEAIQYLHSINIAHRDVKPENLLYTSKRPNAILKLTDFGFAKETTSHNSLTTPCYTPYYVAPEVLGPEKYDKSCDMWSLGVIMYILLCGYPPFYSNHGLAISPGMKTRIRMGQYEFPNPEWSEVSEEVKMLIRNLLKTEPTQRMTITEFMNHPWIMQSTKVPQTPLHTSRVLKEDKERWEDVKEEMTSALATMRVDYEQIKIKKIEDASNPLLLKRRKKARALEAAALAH
- EXPERIMENTAL DETAILS: kinase selectivity panel
- Format: biochemical
- MEASUREMENT PARAMETERS: read-out: percentage of control activity (POC), MAPKAP-K2
Each record here notes measured remaining activity at 10 µM.

>  <MOLECULE>
COc1c(NC(=O)c2ccc(C)c(-c3nnc4c(NCC(C)(C)C)nccn34)c2)cc(C(C)(C)C)cc1NS(C)(=O)=O [compound 7, reference compound]

>  <SYSTEM UNDER TEST>
MAPKAP-K2 (Homo sapiens)

>  <remaining activity at 10 µM / %>
110

$$$$
>  <MOLECULE>
Cn1cc(-c2cccc(-c3nc(C(=O)NC4C5CC6CC4CC(O)(C6)C5)c(N)nc3N)c2)cn1 (centres unmarked) [compound 4]

>  <SYSTEM UNDER TEST>
MAPKAP-K2 (Homo sapiens)

>  <remaining activity at 10 µM / %>
107

$$$$
>  <MOLECULE>
Cc1ccc(C(=O)NCC2CC2)cc1-c1ccc2c(c1)NC(=O)C21CCCC1 [compound 3]

>  <SYSTEM UNDER TEST>
MAPKAP-K2 (Homo sapiens)

>  <remaining activity at 10 µM / %>
106

$$$$
>  <MOLECULE>
CS(=O)(=O)N1CCN(c2ccc(Nc3ncc(C(N)=O)c(NC4CC4)n3)cc2)CC1 [compound 5]

>  <SYSTEM UNDER TEST>
MAPKAP-K2 (Homo sapiens)

>  <remaining activity at 10 µM / %>
85

$$$$
>  <MOLECULE>
CC(C)(C)N1CCC(c2cc(-c3ccc(F)cc3Cl)c3cc[n+]([O-])c(-c4c(Cl)cccc4Cl)c3n2)CC1 [compound 2]

>  <SYSTEM UNDER TEST>
MAPKAP-K2 (Homo sapiens)

>  <remaining activity at 10 µM / %>
108

$$$$

###

compounds and their reported remaining activity at 10 µM
- SYSTEM UNDER TEST: CaMKIIδ (Homo sapiens)
- Construct: purchased Eurofins Pharma Discovery Services (KinaseProfiler; Cerep BioPrint panel)
- Sequence (Q13557 whole entry): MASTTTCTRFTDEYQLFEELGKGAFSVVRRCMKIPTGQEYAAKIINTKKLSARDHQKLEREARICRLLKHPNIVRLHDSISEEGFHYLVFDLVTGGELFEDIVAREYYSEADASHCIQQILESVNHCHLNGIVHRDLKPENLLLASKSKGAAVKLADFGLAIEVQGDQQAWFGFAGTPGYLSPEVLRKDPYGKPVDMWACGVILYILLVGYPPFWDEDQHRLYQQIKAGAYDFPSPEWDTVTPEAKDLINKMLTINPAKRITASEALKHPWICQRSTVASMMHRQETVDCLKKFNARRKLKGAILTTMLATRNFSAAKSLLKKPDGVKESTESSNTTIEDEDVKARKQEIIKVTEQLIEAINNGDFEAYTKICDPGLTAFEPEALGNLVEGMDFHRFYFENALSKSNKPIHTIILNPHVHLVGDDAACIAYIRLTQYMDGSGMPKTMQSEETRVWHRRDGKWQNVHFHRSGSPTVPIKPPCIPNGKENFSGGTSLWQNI
- EXPERIMENTAL DETAILS: kinase selectivity panel
- Assay type: biochemical
- MEASUREMENT PARAMETERS: read-out: percentage of control activity (POC), CaMKIIδ
MEASURE: remaining activity at 10 µM (%)

>  <COMPOUND>
Cc1ccc(C(=O)NCC2CC2)cc1-c1ccc2c(c1)NC(=O)C21CCCC1 [compound 3]

>  <NUMERIC VALUE>
103

$$$$
>  <COMPOUND>
Cn1cc(-c2cccc(-c3nc(C(=O)NC4C5CC6CC4CC(O)(C6)C5)c(N)nc3N)c2)cn1 (centres unmarked) [compound 4]

>  <NUMERIC VALUE>
93

$$$$
>  <COMPOUND>
COc1c(NC(=O)c2ccc(C)c(-c3nnc4c(NCC(C)(C)C)nccn34)c2)cc(C(C)(C)C)cc1NS(C)(=O)=O [compound 7, reference compound]

>  <NUMERIC VALUE>
96

$$$$
>  <COMPOUND>
CS(=O)(=O)N1CCN(c2ccc(Nc3ncc(C(N)=O)c(NC4CC4)n3)cc2)CC1 [compound 5]

>  <NUMERIC VALUE>
27

$$$$
>  <COMPOUND>
CC(C)(C)N1CCC(c2cc(-c3ccc(F)cc3Cl)c3cc[n+]([O-])c(-c4c(Cl)cccc4Cl)c3n2)CC1 [compound 2]

>  <NUMERIC VALUE>
100

$$$$
